System: emLYPLA1
Test: LYPLA1 and LYPLA2 inhibitors, biochemical, gel-based ABPP, fluorescence, recombinant and endogenous enzyme (AID 493105)
Conditions: fluorescent probe labeling, membrane fraction, at 20 µM, hits give high values
quantityName: inhibition (%)
Number only, in %; omit the unit.

Previously resolved entries follow.
INSERT INTO measurements (compound, unitsofmeasure, assayvalue) VALUES
  ('CC(=O)c1ccc(N2CCN(C(=O)c3ccc(C(=O)c4ccccc4)cc3)CC2)cc1', '%', 13),
  ('Cc1nn(-c2ccccc2)c(N2CCCC2)c1/C=N/Nc1ccc(S(N)(=O)=O)cc1[N+](=O)[O-]', '%', 0),
  ('CC(=O)c1ccc(N2CCN(C(=O)c3cccc(Oc4ccccc4)c3)CC2)cc1', '%', 0),
  ('COc1cc(/C=N/N2CCN(Cc3ccc(Cl)cc3)CC2)cc(Br)c1O', '%', 0),
  ('COc1ccc(C(=O)NC(=S)Nc2ccc(N3CCN(C(C)=O)CC3)cc2)cc1[N+](=O)[O-]', '%', 10),
  ('OC(COc1ccc(Cl)cc1)CN1CCN(c2cccc(Cl)c2)CC1 (configuration not stated)', '%', 0),
  ('CC(=O)N1CCN(c2ccc(NC(=S)NC(=O)c3ccc(C)c([N+](=O)[O-])c3)cc2)CC1', '%', 0),
  ('COc1ccc(N2CCN(C(=O)CNC(=O)c3cn(-c4ccccc4OC)c(=O)c4ccccc34)CC2)cc1', '%', 15);

// query Return reported inhibition; argument: O=C(CCCCCCN1C(=O)c2ccccc2C1=O)N1CCC(c2ccccc2)C1 (configuration not stated)
// result 0

// query Return reported inhibition; argument: COc1ccc(N2CCN(C(=O)C3CCC(Cn4c(=S)[nH]c5ccccc5c4=O)CC3)CC2)cc1 (configuration not stated)
// result 2

// query Return reported inhibition; argument: COc1ccc(-n2nc(C(=O)NCC(=O)N3CCN(c4cccc(Cl)c4)CC3)c3ccccc3c2=O)c(OC)c1
// result 16

// query Return reported inhibition; argument: O=C(NCCNC(=O)c1cc(OCC(F)(F)F)ccc1OCC(F)(F)F)Nc1cccc(C(F)(F)F)c1
// result 12

// query Return reported inhibition; argument: COc1cc(COc2ccc3c(C)c(Cc4ccccc4)c(=O)oc3c2)cc(OC)c1OC
// result 0
